biological target: Indoleamine 2,3-dioxygenase 1 (Homo sapiens); experiment: Inhibition of IDO1 in IFNgamma-stimulated human HeLa cells assessed as reduction in kynurenine formation using L-tryptophan as substrate by absorbance based analysis; assay type: cell-based
pIC50: −log10 of the molar value.
measured parameter: pIC50

Example cases with answers are listed next.
structure as smiles | pIC50
CC(=O)O[C@H]1CCc2c(ccc3c2C(=O)C(=O)c2c(CO)coc2-3)C1(C)C | 5.73
CC(=O)OCc1coc2c1C(=O)C(=O)c1c-2ccc2c1CCC(=O)C2(C)C | 6.09
CC(=O)OCc1coc2c1C(=O)C(=O)c1c-2ccc2c1C=CC(=O)C2(C)C | 6.57

[1] CC(=O)OCc1coc2c1C(=O)C(=O)c1c-2ccc2c1CC[C@H](O)C2(C)C
[2] CC1(C)C(=O)CCc2c1ccc1c2C(=O)C(=O)c2c(CO)coc2-1
Given 1 and given 2 , which shows the smaller recorded pIC50? Output the label that corresponds to your choice.
1

----------
biological target: Indoleamine 2,3-dioxygenase 1 (Homo sapiens); test: Inhibition of recombinant human IDO1 assessed as reduction in N-formylkynurenine formation using L-tryptophan as substrate and measured after 15 mins
measured parameter: IC50 (nM)

compound | unit name | IC50
CC1(C)CCCc2c1ccc1c2C(=O)C(=O)c2c(CO)coc2-1 | nM | 1070
CC1(C)C(=O)C=Cc2c1ccc1c2C(=O)C(=O)c2c(C(=O)O)coc2-1 | nM | 4570
CC1(C)C(=O)C=Cc2c1ccc1c2C(=O)C(=O)c2c(CCl)coc2-1 | nM | 140

[P] Cc1coc2c1C(=O)C(=O)c1c-2ccc2c1C(Br)CCC2(C)C (stereo unspecified)
[Q] CC1(C)C(=O)CCc2c1ccc1c2C(=O)C(=O)c2c(CO)coc2-1
[R] CC(=O)O[C@H]1CCc2c(ccc3c2C(=O)C(=O)c2c(CO)coc2-3)C1(C)C
[S] Cc1coc2c1C(=O)C(=O)c1c-2ccc2c1CC[C@H](O)C2(C)C
[T] Cc1coc2c1C(=O)C(=O)c1c-2ccc2c1C(=O)C(O)=CC2(C)C
Order the records so the highest IC50 appears first and the lowest last. As an answer, provide the labels arranged in the order called for.
S, T, P, R, Q

----------
biological target: Indoleamine 2,3-dioxygenase 1 (Homo sapiens, UniProt P14902); test: Inhibition of IDO1 in IFNgamma-stimulated human HeLa cells assessed as reduction in kynurenine formation using L-tryptophan as substrate by absorbance based analysis; type: cell-based
Sequence (P14902 whole entry): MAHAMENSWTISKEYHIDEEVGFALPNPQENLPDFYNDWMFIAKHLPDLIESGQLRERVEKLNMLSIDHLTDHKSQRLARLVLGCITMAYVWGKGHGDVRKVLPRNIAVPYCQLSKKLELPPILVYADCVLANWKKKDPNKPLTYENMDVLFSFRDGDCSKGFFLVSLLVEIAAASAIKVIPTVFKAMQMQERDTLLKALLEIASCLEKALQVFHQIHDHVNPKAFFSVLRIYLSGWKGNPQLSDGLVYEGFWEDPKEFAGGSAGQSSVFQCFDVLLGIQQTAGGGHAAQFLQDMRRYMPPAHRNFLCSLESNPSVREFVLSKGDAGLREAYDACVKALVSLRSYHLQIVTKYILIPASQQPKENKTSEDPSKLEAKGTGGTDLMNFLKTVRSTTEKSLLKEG
pIC50: −log10 of the molar value.
measured parameter: pIC50

Example cases with answers are listed next.
structure as smiles | pIC50
CC1(C)C(=O)C=Cc2c1ccc1c2C(=O)C(=O)c2c(CO)coc2-1 | 5.59
Cc1coc2c1C(=O)C(=O)c1c-2ccc2c1C=CC(=O)C2(C)C | 5.03
CC1(C)C(=O)C=Cc2c1ccc1c2C(=O)C(=O)c2c(C(=O)O)coc2-1 | 5.07
Cc1coc2c1C(=O)C(=O)c1c-2ccc2c1CC[C@H](OS(C)(=O)=O)C2(C)C | 5.29
CC1(C)C(=O)C=Cc2c1ccc1c2C(=O)C(=O)c2c(CF)coc2-1 | 6.19

[A] CC1(C)c2ccc3c(c2CC[C@@H]1O)C(=O)C(=O)c1c(CO)coc1-3
[B] CC1(C)C(=O)C=Cc2c1ccc1c2C(=O)C(=O)c2c(CCl)coc2-1
Given A and given B , which shows the smaller recorded pIC50? Output the label that corresponds to your choice.
A
(A: 5.78, B: 6.17)

----------
experiment: Hemolytic activity in rat RBC at 500 uM incubated for 30 mins; type: toxicity, cell-based, Erythrocyte; conditions: rat red blood cells (erythrocytes), read-out: Activity
measured parameter: hemolysis at 0.5 h, 500 µM (%)
Supply the numeric figure in %, leaving out any unit text.

Record request: hemolysis at 0.5 h, 500 µM value, item CC(=O)OCc1coc2c1C(=O)C(=O)c1c-2ccc2c1C=CC(=O)C2(C)C
10

----------
target: UniProtKB P48775; experiment: Inhibition of TDO in human HEK293 cells assessed as reduction in kynurenine formation using L-tryptophan as substrate by absorbance based analysis; type: cell-based
measured parameter: IC50 (µM)

Example cases with answers are listed next.
compound | IC50 / µM
CC1(C)C(=O)C=Cc2c1ccc1c2C(=O)C(=O)c2c(CF)coc2-1 | 0.73
CC1(C)C(=O)CCc2c1ccc1c2C(=O)C(=O)c2c(CO)coc2-1 | 3.13
CC1(C)CCCc2c1ccc1c2C(=O)C(=O)c2c(CO)coc2-1 | 7.18
CC1(C)C(=O)C=Cc2c1ccc1c2C(=O)C(=O)c2c(CCl)coc2-1 | 0.34
CC1(C)c2ccc3c(c2CC[C@@H]1O)C(=O)C(=O)c1c(CO)coc1-3 | 0.95
Cc1coc2c1C(=O)C(=O)c1c-2ccc2c1C(Br)CCC2(C)C (stereo unspecified) | 8.1

[A] CC(=O)O[C@H]1CCc2c(ccc3c2C(=O)C(=O)c2c(CO)coc2-3)C1(C)C
[B] NS(=O)(=O)NCCNc1nonc1C(=NO)Nc1ccc(F)c(Br)c1
Which numeric IC50 is bigger, that of A or that of B ? Output the label that corresponds to your choice.
B

[P] CC1(C)C(=O)C=Cc2c1ccc1c2C(=O)C(=O)c2c(CO)coc2-1
[Q] CC(=O)OCc1coc2c1C(=O)C(=O)c1c-2ccc2c1CC[C@H](O)C2(C)C
Given P and given Q , which shows the smaller recorded IC50? Output the label that corresponds to your choice.
P
(P: 1.42 µM, Q: 2.06 µM)

----------
target: Indoleamine 2,3-dioxygenase 1 (Homo sapiens); experiment: Inhibition of recombinant human IDO1 assessed as reduction in N-formylkynurenine formation using L-tryptophan as substrate and measured after 15 mins
measured parameter: IC50 (nM)

Example cases with answers are listed next.
compound | measured parameter | unit name | assay result
CC(=O)OCc1coc2c1C(=O)C(=O)c1c-2ccc2c1CCC(=O)C2(C)C | IC50 | nM | 1730
CCN(CC)C(=O)c1coc2c1C(=O)C(=O)c1c-2ccc2c1C=CC(=O)C2(C)C | IC50 | nM | 3270
Cc1coc2c1C(=O)C(=O)c1c-2ccc2c1C=CC(=O)C2(C)C | IC50 | nM | 980

[1] Cc1coc2c1C(=O)C(=O)c1c-2ccc2c1C(=O)C(O)CC2(C)C (stereo not given)
[2] CC(=O)OCc1coc2c1C(=O)C(=O)c1c-2ccc2c1C=CC(=O)C2(C)C
Given 1 and given 2 , which shows the smaller recorded IC50? Output the label that corresponds to your choice.
2
(2: 70 nM, 1: 490 nM)

----------
target: Indoleamine 2,3-dioxygenase 1 (Homo sapiens, UniProt P14902); test: Inhibition of recombinant human IDO1 assessed as reduction in N-formylkynurenine formation using L-tryptophan as substrate and measured after 15 mins
pIC50: −log10 of the molar value.
measured parameter: pIC50

structure as smiles | measured parameter | assay result
CC1(C)c2ccc3c(c2CC[C@@H]1O)C(=O)C(=O)c1c(CO)coc1-3 | pIC50 | 6.23
CC1(C)C(=O)C=Cc2c1ccc1c2C(=O)C(=O)c2c(CF)coc2-1 | pIC50 | 6.38
CC(=O)OCc1coc2c1C(=O)C(=O)c1c-2ccc2c1CC[C@H](O)C2(C)C | pIC50 | 6.17

[I] Cc1coc2c1C(=O)C(=O)c1c-2ccc2c1CCC(=O)C2(C)C
[II] CC1(C)C(=O)C=Cc2c1ccc1c2C(=O)C(=O)c2c(CO)coc2-1
[III] Cc1coc2c1C(=O)C(=O)c1c-2ccc2c1CC[C@H](OS(C)(=O)=O)C2(C)C
Order the records so the highest pIC50 appears first and the lowest last. As an answer, provide the labels arranged in the order called for.
II, I, III
(II: 6.66, I: 6.44, III: 6.09)

----------
target: Tryptophan 2,3-dioxygenase (Homo sapiens); assay: Competitive inhibition of recombinant human TDO measured by surface plasmon resonance assay
measured parameter: Ki (nM)
Supply the numeric figure in nM, leaving out any unit text.

Record request: Ki value, item CC(=O)OCc1coc2c1C(=O)C(=O)c1c-2ccc2c1C=CC(=O)C2(C)C
730

----------
target: Tryptophan 2,3-dioxygenase (Homo sapiens, UniProt P48775); assay: Inhibition of recombinant human TDO assessed as reduction in N-formylkynurenine formation using L-tryptophan as substrate and measured after 15 mins
Sequence (P48775 whole entry): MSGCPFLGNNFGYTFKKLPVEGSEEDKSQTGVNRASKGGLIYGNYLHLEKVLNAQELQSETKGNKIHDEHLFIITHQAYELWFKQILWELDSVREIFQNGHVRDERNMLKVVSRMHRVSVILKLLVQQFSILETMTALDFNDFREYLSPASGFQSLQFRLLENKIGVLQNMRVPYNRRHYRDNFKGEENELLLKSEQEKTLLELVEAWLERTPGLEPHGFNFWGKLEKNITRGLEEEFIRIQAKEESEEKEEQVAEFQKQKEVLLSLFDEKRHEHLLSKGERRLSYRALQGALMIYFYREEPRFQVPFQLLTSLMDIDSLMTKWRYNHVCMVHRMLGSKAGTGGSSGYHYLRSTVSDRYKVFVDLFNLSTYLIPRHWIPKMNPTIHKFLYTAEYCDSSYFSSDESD
measured parameter: IC50 (nM)

molecule | unit name | IC50
Cc1coc2c1C(=O)C(=O)c1c-2ccc2c1C(=O)C(O)CC2(C)C (configuration not stated) | nM | 1480
CC1(C)C(=O)C=Cc2c1ccc1c2C(=O)C(=O)c2c(CCl)coc2-1 | nM | 110

[I] CC(=O)O[C@H]1CCc2c(ccc3c2C(=O)C(=O)c2c(CO)coc2-3)C1(C)C
[II] CC1(C)c2ccc3c(c2CC[C@@H]1O)C(=O)C(=O)c1c(CO)coc1-3
Given I and given II , which shows the smaller recorded IC50? Output the label that corresponds to your choice.
II

[I] Cc1coc2c1C(=O)C(=O)c1c-2ccc2c1CC[C@H](OS(C)(=O)=O)C2(C)C
[II] NS(=O)(=O)NCCNc1nonc1C(=NO)Nc1ccc(F)c(Br)c1 [EPACADOSTAT]
Which numeric IC50 is bigger, that of I or that of II ? Output the label that corresponds to your choice.
II
(II: 16100 nM, I: 1210 nM)
